Tested on: Pepsin
Construct: purchased Merck Millipore
Assay: Protease stability in simulated gastric fluid (Pepsin-SGF, FaSSGF)
Type: in vitro ADME
Settings: simulated gastric fluid with pepsin (Pepsin-SGF), 60 min, 1 μM peptide, 37° C., read-out: FaSSGF 60 (min), remaining percent of peptide
Starred links: 1 amine or outer side, 2 acyl side, 3 side chain; linkers in the order of their positions; H or OH if unused. Positions of bridges follow the written chain, without caps; N, C: chain ends. Non-standard residues stand in square brackets, D forms with d. Residues, ends and D or L forms follow the SMILES beside them. *: point of attachment. X3 = CN(CCCCC(=O)N[C@@H](CS[*:2])C(=O)[*:1])[*:3]; Trp(7-Me) = Cc1cccc2c(C[C@H](N)C(=O)O)c[nH]c12; 2Nal = N[C@@H](Cc1ccc2ccccc2c1)C(=O)O; AEF = NCCOc1ccc(C[C@H](N)C(=O)O)cc1; αMeL = CC(C)C[C@](C)(N)C(=O)O; Me2NCH2CH2 = CN(C)CC*; Aib = CC(C)(N)C(=O)O; Ava = NCCCCC(=O)O; Sar = CNCC(=O)O
Property: remaining at 1 h, 1 µM; scope: individual compounds
Write the answer as a number in %, unit excluded.

>>> test_result("CC(=O)N[C@H]1CCCCNC(=O)[C@@H]2CSSC[C@H](NC(=O)[C@H](CCC(N)=O)NC(=O)[C@H](Cc3c[nH]c4ccccc34)NC1=O)C(=O)N[C@@H](Cc1ccc(OCCN)cc1)C(=O)N[C@@H](Cc1ccc3ccccc3c1)C(=O)N[C@@](C)(CC(C)C)C(=O)N[C@H](C(=O)N[C@@H](C)C(=O)N[C@H](CC(C)C)C(N)=O)CCC(=O)N(C)CCCCC(=O)N2 [compound 44] (Ac-KWQC[AEF][2Nal][αMeL]EA[dL]-NH2; linker 1-4-8 via X3)")
88

Now consider the entry below.
Would you mind telling me what remaining at 1 h, 1 µM value was observed for CC(=O)NCCCC[C@@H]1NC(=O)[C@H](Cc2c[nH]c3c(C)cccc23)NC(=O)[C@H]([C@@H](C)O)NC(=O)[C@H](CC(N)=O)NC(=O)[C@@H]2CSSC[C@H](NC1=O)C(=O)N[C@@H](Cc1ccc(OCCN(C)C)cc1)C(=O)N[C@@H](Cc1ccc3ccccc3c1)C(=O)NC(C)(C)C(=O)N[C@H](C(=O)N[C@@H](CC(N)=O)C(=O)N[C@@H](Cc1c[nH]cn1)C(=O)N(C)CC(N)=O)CCC(=O)NCCCCC(=O)N2 [compound 45] ([Ava]CNT[Trp(7-Me)]K(Ac)CY(Me2NCH2CH2)[2Nal][Aib]ENH[Sar]-NH2; disulfide 2-7; lactam N-11) ?
100
